Listed compounds paired with reported surface tension liquid-gas
condition: 353.16 K, Pendant drop shape
Your answer is read as mN/m, so omit the unit and give the number.

Consider the following illustrative entries.
COCCO | 24.7
COCCOCCOC | 22.87
CCCCC(CC)COC(C)=O (centres undefined) [2-ethylhexyl acetate] | 20.22

For the next question, use this compound.
Ask | // fetch surface tension liquid-gas given entry CCOC(=O)CCC(=O)OCC [diethyl butanedioate]
Reply | 25.12

====

condition: 308.15 K; 101.33 kPa; Liquid; Vibrating tube method
reported_metric: mass density (kg/m3)
Your answer is read as kg/m3, so omit the unit and give the number.

Consider the following illustrative entries.
COCCOCCOC | 928.95
CCCCC(CC)COC(C)=O (centres undefined) [2-ethylhexyl acetate] | 859.15
COCCO | 952.09

For the next question, use this compound.
Ask | // fetch mass density given entry CCOC(=O)CCC(=O)OCC [diethyl butanedioate]
Reply | 1024.4

====

condition: 353.16 K; 101.33 kPa; Liquid; Vibrating tube method
Listed compounds paired with reported mass density
Your answer is read as kg/m3, so omit the unit and give the number.

COCCO | 908.26
CCCCC(CC)COC(C)=O (centres undefined) [2-ethylhexyl acetate] | 819.54
COCCOCCOC | 882.79

For the next question, use this compound.
Ask | // fetch mass density given entry CCOC(=O)CCC(=O)OCC [diethyl butanedioate]
Reply | 977.44

====

Listed molecules paired with reported mass density
condition: 338.15 K; 101.33 kPa; Liquid; Vibrating tube method
Your answer is read as kg/m3, so omit the unit and give the number.

Consider the following illustrative entries.
COCCOCCOC [2,5,8-trioxanonane] | 898.67
CCOC(=O)CCC(=O)OCC [diethyl butanedioate] | 993.16
COCCO [2-methoxyethan-1-ol] | 923.54

For the next question, use this molecule.
Ask | // fetch mass density given entry CCCCC(CC)COC(C)=O (centres undefined) [2-ethylhexyl acetate]
Reply | 832.78

====

condition: 303.16 K, Pendant drop shape
Listed compounds paired with reported surface tension liquid-gas
Your answer is read as mN/m, so omit the unit and give the number.

Consider the following illustrative entries.
COCCO [2-methoxyethan-1-ol] | 30.06
COCCOCCOC [2,5,8-trioxanonane] | 28.54
CCOC(=O)CCC(=O)OCC [diethyl butanedioate] | 30.62

For the next question, use this compound.
Ask | // fetch surface tension liquid-gas given entry Cc1ccccc1 [toluene]
Reply | 27.15

====

condition: 353.15 K; 101.33 kPa; Liquid; Vibrating tube method
Listed compounds paired with reported mass density
Your answer is read as kg/m3, so omit the unit and give the number.

Consider the following illustrative entries.
COCCOCCOC [2,5,8-trioxanonane] | 883.24
CCOC(=O)CCC(=O)OCC [diethyl butanedioate] | 977.45
CCCCC(CC)COC(C)=O (centres undefined) [2-ethylhexyl acetate] | 819.45

For the next question, use this compound.
Ask | // fetch mass density given entry COCCO [2-methoxyethan-1-ol]
Reply | 908.7

====

condition: 358.15 K; 101.33 kPa; Liquid; Vibrating tube method
reported_metric: mass density (kg/m3)
Your answer is read as kg/m3, so omit the unit and give the number.

Ask | // fetch mass density given entry CCOC(=O)CCC(=O)OCC [diethyl butanedioate]
Reply | 972.19

Ask | // fetch mass density given entry CCCCC(CC)COC(C)=O (centres undefined) [2-ethylhexyl acetate]
Reply | 814.98

Ask | // fetch mass density given entry COCCO
Reply | 903.65

Ask | // fetch mass density given entry COCCOCCOC
Reply | 878.04

====

condition: 348.15 K; 101.33 kPa; Liquid; Vibrating tube method
Listed compounds paired with reported mass density
Your answer is read as kg/m3, so omit the unit and give the number.

Consider the following illustrative entries.
CCOC(=O)CCC(=O)OCC [diethyl butanedioate] | 982.7
COCCOCCOC [2,5,8-trioxanonane] | 888.41
COCCO [2-methoxyethan-1-ol] | 913.69

Ask | // fetch mass density given entry CCCCC(CC)COC(C)=O (centres undefined) [2-ethylhexyl acetate]
Reply | 823.91

====

condition: 318.15 K; 101.33 kPa; Liquid; Vibrating tube method
reported_metric: mass density (kg/m3)
Your answer is read as kg/m3, so omit the unit and give the number.

Consider the following illustrative entries.
COCCOCCOC | 918.94
CCOC(=O)CCC(=O)OCC [diethyl butanedioate] | 1014.01
COCCO | 942.72

For the next question, use this compound.
Ask | // fetch mass density given entry CCCCC(CC)COC(C)=O (centres undefined) [2-ethylhexyl acetate]
Reply | 850.39

====

condition: 303.15 K; 101.33 kPa; Liquid; Vibrating tube method
Listed compounds paired with reported mass density
Your answer is read as kg/m3, so omit the unit and give the number.

Ask | // fetch mass density given entry CCOC(=O)CCC(=O)OCC [diethyl butanedioate]
Reply | 1029.59

Ask | // fetch mass density given entry COCCO [2-methoxyethan-1-ol]
Reply | 956.73

Ask | // fetch mass density given entry COCCOCCOC [2,5,8-trioxanonane]
Reply | 933.98

Ask | // fetch mass density given entry CCCCC(CC)COC(C)=O (centres undefined) [2-ethylhexyl acetate]
Reply | 863.51
